# SYSTEM NAME: T1, human ICOS, full-length, expressed on transfected Expi293 cells (human, UniProt Q9Y6W8 21-199)
# T1 construct: whole, on cells
# T1 sequence (looked up): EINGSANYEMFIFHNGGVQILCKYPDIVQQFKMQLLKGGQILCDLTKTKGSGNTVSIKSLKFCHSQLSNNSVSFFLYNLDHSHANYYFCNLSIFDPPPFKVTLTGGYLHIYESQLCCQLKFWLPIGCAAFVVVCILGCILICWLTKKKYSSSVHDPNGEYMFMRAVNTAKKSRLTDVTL
# METHOD SUMMARY: flow cytometry, 100 nM, Expi293 cells with human ICOS
MEASURE: MFI ratio to WT (ΔWT)

Documented MFI ratio to WT (ΔWT) of variant ICOSL IgV-Fc fusion N52P/N57S/Q100G (Fc fusion) DTQEKEVRAMVGSDVELSCACPEGSRFDLNDVYVYWQTSESKTVVTYHIPQPSSLESVDSRYRNRALMSPAGMLRGDFSLRLFNVTPQDEQKFHCLVLSGSLGFQEVLSVEVTLHVAANFSVGSGGGGSEPKSSDKTHTCPPCPAPEAEGAPSVFLFPPKPKDTLMISRTPEVTCVVVDVSHEDPEVKFNWYVDGVEVHNAKTKPREEQYNSTYRVVSVLTVLHQDWLNGKEYKCKVSNKALPAPIEKTISKAKGQPREPQVYTLPPSREEMTKNQVSLTCLVKGFYPSDIAVEWESNGQPENNYKTTPPVLDSDGSFFLYSKLTVDKSRWQQGNVFSCSVMHEALHNHYTQKSLSLSPG : 0.68 fold

Documented MFI ratio to WT (ΔWT) of variant ICOSL IgV-Fc fusion N52R/N57W/Q100K (Fc fusion) DTQEKEVRAMVGSDVELSCACPEGSRFDLNDVYVYWQTSESKTVVTYHIPQRSSLEWVDSRYRNRALMSPAGMLRGDFSLRLFNVTPQDEQKFHCLVLSKSLGFQEVLSVEVTLHVAANFSVGSGGGGSEPKSSDKTHTCPPCPAPEAEGAPSVFLFPPKPKDTLMISRTPEVTCVVVDVSHEDPEVKFNWYVDGVEVHNAKTKPREEQYNSTYRVVSVLTVLHQDWLNGKEYKCKVSNKALPAPIEKTISKAKGQPREPQVYTLPPSREEMTKNQVSLTCLVKGFYPSDIAVEWESNGQPENNYKTTPPVLDSDGSFFLYSKLTVDKSRWQQGNVFSCSVMHEALHNHYTQKSLSLSPG : 1.65 fold

Documented MFI ratio to WT (ΔWT) of variant ICOSL ECD-Fc fusion, full length N52H/N57Y/Q100R/F172S (Fc fusion, not shown: a dimerising Fc or GST) DTQEKEVRAMVGSDVELSCACPEGSRFDLNDVYVYWQTSESKTVVTYHIPQHSSLEYVDSRYRNRALMSPAGMLRGDFSLRLFNVTPQDEQKFHCLVLSRSLGFQEVLSVEVTLHVAANFSVPVVSAPHSPSQDELTFTCTSINGYPRPNVYWINKTDNSLLDQALQNDTVSLNMRGLYDVVSVLRIARTPSVNIGCCIENVLLQQNLTVGSQTGNDIGERDKITENPVSTGEKNAAT : 1.12 fold

Documented MFI ratio to WT (ΔWT) of variant ICOSL IgV-Fc fusion N52C/N57E/Q100S (Fc fusion) DTQEKEVRAMVGSDVELSCACPEGSRFDLNDVYVYWQTSESKTVVTYHIPQCSSLEEVDSRYRNRALMSPAGMLRGDFSLRLFNVTPQDEQKFHCLVLSSSLGFQEVLSVEVTLHVAANFSVGSGGGGSEPKSSDKTHTCPPCPAPEAEGAPSVFLFPPKPKDTLMISRTPEVTCVVVDVSHEDPEVKFNWYVDGVEVHNAKTKPREEQYNSTYRVVSVLTVLHQDWLNGKEYKCKVSNKALPAPIEKTISKAKGQPREPQVYTLPPSREEMTKNQVSLTCLVKGFYPSDIAVEWESNGQPENNYKTTPPVLDSDGSFFLYSKLTVDKSRWQQGNVFSCSVMHEALHNHYTQKSLSLSPG : 0.59 fold
